- test-target: T1, human FGFR3b expressed with a C-terminal murine Fc tag (hFGFR3b.mFc) (human)
- T1 construct: called dimeric; also called REGN3153; dimeric human FGFR3b
- T1 chain: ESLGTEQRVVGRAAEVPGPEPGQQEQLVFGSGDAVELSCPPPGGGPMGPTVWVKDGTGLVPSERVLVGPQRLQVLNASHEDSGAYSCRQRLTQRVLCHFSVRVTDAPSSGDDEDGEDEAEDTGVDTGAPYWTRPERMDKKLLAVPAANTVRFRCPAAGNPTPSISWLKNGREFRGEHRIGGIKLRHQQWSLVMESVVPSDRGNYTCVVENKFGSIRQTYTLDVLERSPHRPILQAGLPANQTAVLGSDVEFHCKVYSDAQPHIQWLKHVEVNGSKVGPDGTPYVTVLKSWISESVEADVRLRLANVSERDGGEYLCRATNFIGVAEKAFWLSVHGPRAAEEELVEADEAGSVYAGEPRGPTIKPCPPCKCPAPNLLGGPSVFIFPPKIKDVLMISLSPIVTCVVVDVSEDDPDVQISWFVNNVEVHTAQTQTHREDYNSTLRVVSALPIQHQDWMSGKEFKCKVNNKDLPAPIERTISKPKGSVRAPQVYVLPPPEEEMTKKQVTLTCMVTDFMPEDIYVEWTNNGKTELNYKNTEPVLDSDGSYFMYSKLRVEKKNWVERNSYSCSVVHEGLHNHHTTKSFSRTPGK
- protocol-notes: SPR Biacore, mAb captured on anti-hFc, 25C
I'd appreciate it if you could supply koff values for the items below.

Please report koff for the following binder: H4H30063P (antibody, human IgG4 S228P, kappa, V domains shown, HCVR 2, LCVR 10; also called REGN15684) VH: QVQLQESGPGLVKPSETLSLTCTVSGDSINSYFWSWIRQLPGKELEWIGHIYSSGSTRYNPSLQSRVTISIDTSKNQFSLKLSSVTAADTAVYYCARGASAVDYWGQGTLVTVSS VL: EIVLTQSPGTLSLSPGERATLSCRTSQSISSGYLAWYQQKPGQAPRLLIYGASRRATGIPDRFSGSGSGTDFTLTISRLEPEDFVVYYCQQYGSSPYTFGQGTKLEIKR
≤ 1e-05 s⁻¹

Supply reported koff belonging to this binder: H4H30076P (antibody, human IgG4 S228P, kappa, V domains shown) VH: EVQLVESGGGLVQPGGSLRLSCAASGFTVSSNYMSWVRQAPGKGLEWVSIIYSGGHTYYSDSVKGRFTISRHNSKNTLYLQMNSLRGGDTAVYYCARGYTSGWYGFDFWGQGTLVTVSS VL: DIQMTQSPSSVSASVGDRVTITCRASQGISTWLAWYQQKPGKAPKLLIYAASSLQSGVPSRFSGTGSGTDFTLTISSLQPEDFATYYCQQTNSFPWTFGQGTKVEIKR
≤ 1e-05 s⁻¹

Report measured koff; entry is H4H30071P (antibody, human IgG4 S228P, kappa, V domains shown, HCVR 42, LCVR 50) VH: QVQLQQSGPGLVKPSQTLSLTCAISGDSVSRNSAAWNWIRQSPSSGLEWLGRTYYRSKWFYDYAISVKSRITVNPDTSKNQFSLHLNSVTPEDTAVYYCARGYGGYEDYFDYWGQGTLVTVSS VL: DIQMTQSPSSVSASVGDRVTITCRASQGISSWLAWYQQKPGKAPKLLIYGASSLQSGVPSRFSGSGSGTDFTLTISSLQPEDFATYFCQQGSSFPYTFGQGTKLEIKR
≤ 1e-05 s⁻¹

Find the measured koff of H4H30045P (antibody, human IgG4 S228P, kappa, V domains shown, HCVR 179, LCVR 187) VH: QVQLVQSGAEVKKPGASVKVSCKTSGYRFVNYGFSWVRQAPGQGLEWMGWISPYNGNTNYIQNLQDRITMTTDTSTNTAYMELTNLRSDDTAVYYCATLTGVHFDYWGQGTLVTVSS VL: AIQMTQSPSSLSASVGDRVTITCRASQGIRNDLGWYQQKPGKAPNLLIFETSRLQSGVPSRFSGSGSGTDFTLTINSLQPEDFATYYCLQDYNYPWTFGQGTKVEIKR and report it.
0.000161 s⁻¹
